# test_target: D(1A) dopamine receptor (Homo sapiens, UniProt P21728)
# Sequence (P21728 whole entry): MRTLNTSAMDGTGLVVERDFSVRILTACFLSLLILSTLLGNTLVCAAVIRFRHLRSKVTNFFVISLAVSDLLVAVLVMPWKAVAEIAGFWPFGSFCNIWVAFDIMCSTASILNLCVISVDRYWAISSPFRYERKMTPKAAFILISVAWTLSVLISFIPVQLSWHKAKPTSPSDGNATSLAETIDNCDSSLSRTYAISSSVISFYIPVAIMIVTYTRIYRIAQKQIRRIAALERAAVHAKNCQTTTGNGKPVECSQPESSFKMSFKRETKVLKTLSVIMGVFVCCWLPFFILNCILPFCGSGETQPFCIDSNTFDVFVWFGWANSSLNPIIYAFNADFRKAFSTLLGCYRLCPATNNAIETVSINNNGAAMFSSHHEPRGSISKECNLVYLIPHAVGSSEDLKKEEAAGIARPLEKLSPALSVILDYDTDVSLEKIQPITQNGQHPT
# measurement_protocol: Agonist activity at D1R (unknown origin) transfected in human HEK293T cells assessed as increase in cAMP accumulation incubated for 2 hrs by cAMP Glo-sensor assay
# Format: functional, cell-based
# test_context: read-out: EC50
measurement_name: EC50 (µM)
Express the result in µM but write the number alone.

Below are worked cases with known answers.
Request: Would you kindly share the measured EC50 for `CN1CCc2cccc3c2[C@H]1Cc1ccc2c(c1-3)OCO2` ?
Result: 0.112

Request: Same read-out for `COc1cccc(-c2cc3c(c(OC(C)=O)c2OC(C)=O)-c2cccc4c2[C@@H](C3)N(C)CC4)c1` ?
Result: 0.669

Request: Proceed to `CCc1cc2c(c(OC(C)=O)c1OC(C)=O)-c1cccc3c1[C@@H](C2)N(C)CC3`
Result: 1.55

New cases:
Request: # get_value(readout='EC50', item= `CC(=O)Oc1c(C(C)C)cc2c(c1OC(C)=O)-c1cccc3c1[C@@H](C2)N(C)CC3` )
Result: 0.951
